Property: scaled log2 fold change; scope: individual variants
B1: library; numbered along this chain (parent)
chain: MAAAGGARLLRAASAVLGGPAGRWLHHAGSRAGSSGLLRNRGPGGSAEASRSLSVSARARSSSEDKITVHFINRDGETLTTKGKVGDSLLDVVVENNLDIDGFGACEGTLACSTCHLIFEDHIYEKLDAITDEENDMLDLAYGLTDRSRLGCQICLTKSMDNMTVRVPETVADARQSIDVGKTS

Variants of: B1
Experiment: scaled log2 fold change in cell abundance, elesclomol vs control (0 = silent mean, 1 = nonsense mean) (scaled log2 ratio); higher = higher viability under elesclomol (loss of FDX1 cuproptosis function);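 further: variant abundance is its share of total variant reads in each endpoint sample, from next-generation sequencing of the integrated ORF PCR-amplified out of genomic DNA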
Conditions: with ABC1 FDX1 KO; elesclomol 5 nM; glucose 10 mM; 14 days
Just the number, please.

>  <mutation-id>
K82F

>  <reading>
-0.531

$$$$
>  <mutation-id>
L79I

>  <reading>
-0.0225

$$$$
>  <mutation-id>
K182C

>  <reading>
-0.0381

$$$$
>  <mutation-id>
I130S

>  <reading>
0.236

$$$$
>  <mutation-id>
D87Q

>  <reading>
-0.303

$$$$

Query block: Can you share its scaled log2 fold change? I mean this variant: "I154K"
Result block: 0.995

Query block: Could you tell me which scaled log2 fold change is on file for "A32T" ?
Result block: -0.266

Query block: Which measured scaled log2 fold change value corresponds to "N162W" ?
Result block: 0.1

Query block: Requested field: scaled log2 fold change. Item: "A13W"
Result block: 0.54

Query block: // lookup scaled log2 fold change for "L89C"
Result block: -0.261

Query block: Given the variant "I100G" , what is its reported scaled log2 fold change?
Result block: -0.02

Query block: Reported scaled log2 fold change, variant "H27W" : ____
Result block: -0.436

Query block: Name the reported scaled log2 fold change value associated with the variant "R23Q"
Result block: 0.00392

Provenance of the data: the supplement of paper PMC12855868
